Molecular target: human APJ receptor (Homo sapiens, UniProt P35414)
Construct: expressed in transfected cells; host or cells: HEK293
Sequence (P35414 whole entry): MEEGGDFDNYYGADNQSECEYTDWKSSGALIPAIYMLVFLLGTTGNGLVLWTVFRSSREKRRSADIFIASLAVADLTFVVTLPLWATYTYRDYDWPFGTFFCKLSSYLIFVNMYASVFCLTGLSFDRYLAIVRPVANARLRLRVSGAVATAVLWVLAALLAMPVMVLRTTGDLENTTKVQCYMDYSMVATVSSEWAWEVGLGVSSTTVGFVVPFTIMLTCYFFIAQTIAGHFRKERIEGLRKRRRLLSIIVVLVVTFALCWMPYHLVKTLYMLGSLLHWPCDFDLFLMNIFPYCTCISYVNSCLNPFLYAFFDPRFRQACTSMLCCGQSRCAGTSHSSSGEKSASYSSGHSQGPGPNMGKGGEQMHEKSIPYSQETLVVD
Assay: Intracellular cAMP accumulation assay (APJ hcAMP, HTRF)
Type: cell-based
Details: hAPJ cAMP EC50 Potency range, HEK293 cells stably expressing human APJ receptor; inhibition of forskolin-mediated cAMP production; Table 1
RECORDED_ENDPOINT: EC50

Below are worked cases with known answers.
COMPOUND: CCN(c1ccccc1)c1c(CC2CC2)nc(O)c(C(=O)N2CCC(c3ncc(F)cc3F)C2)c1O (stereo not shown)
EC50: 10 to 100 nM

COMPOUND: CCCCc1nc(O)c(C(=O)N2CCC(c3ncc(Cl)cc3F)C2)c(O)c1N(CC)c1ccccc1 (stereo not shown)
EC50: 0.01 to 10 nM

COMPOUND: CCCCc1nc(O)c(C(=O)N2CC[C@H](c3ccccc3)C2)c(O)c1N(CC)c1ccccc1
EC50: 10 to 100 nM

COMPOUND: CCCCc1nc(O)c(C(=O)N2CCC(c3ccc(Cl)cn3)C2)c(O)c1N(CC)c1ccccc1 (stereo not shown) [Example 067]
EC50: 0.01 to 10 nM

COMPOUND: CCCCc1nc(O)c(C(=O)N2CC[C@@H](c3ccccc3)C2)c(O)c1N(C)c1ccc(OC)cc1
EC50: 10 to 100 nM

Prompt line: Form entry - test system: human APJ receptor (Homo sapiens, UniProt P35414); read-out: EC50; compound: CCCCc1nc(O)c(C(=O)N2CCC(c3ccccc3F)C2)c(O)c1N(CC)c1ccccc1 (stereo not shown)
Response line: 0.01 to 10 nM

Prompt line: Input CCCCc1nc(O)c(C(=O)N2CCC(c3ncc(F)cc3F)C2)c(O)c1N(CC)c1ccccc1 (stereo not shown)
Response line: 0.01 to 10 nM

Prompt line: Next compound: CCCCc1nc(O)c(C(=O)N2CCC(c3ccc(Cl)cn3)C2)c(O)c1N(CC)c1ccccc1 (stereo not shown) [Example 076]
Response line: 10 to 100 nM

Prompt line: Here is the next compound: CCCCc1nc(O)c(C(=O)N2CC[C@H](c3ccccc3)C2)c(O)c1N(c1ccccc1)C(C)C
Response line: 10 to 100 nM

Prompt line: Follow-up item: CCCCc1nc(O)c(C(=O)N2CCN(Cc3cccc(Cl)c3Cl)CC2)c(O)c1N(CC)c1ccccc1
Response line: 10 to 100 nM
